Exercise: for every item that follows, state its recorded Potency.
- experiment: BET inhibitor-based combinations targeting novel dependencies in MECOM-rearranged (r) AML: SET-2 cell line (AID 2202231); note: potency is the fitted concentration of half-maximal effect; nearly all actives have a fitted effect of over 35% in size
- assay-conditions: SET-2 AML cells viability, CellTiter-Glo luminescence, 48 h
Results filed as inconclusive are left out. Calls of active or inactive are those of the source. Calls come from the whole dose curve; as a rule, active = well fitted inhibition curve with a large enough effect; inconclusive = small, poorly fitted or top-dose-only effect; inactive = no such curve, though single readings can be large or run the other way.

Write down Potency measured for item "CN1CCN(c2ccc(Nc3ncc4cc(C#N)c(=O)n(C5CCCC5)c4n3)cc2)CC1"
1.18 µM (active)

Return the recorded Potency value; entry: "Cc1ccc(C(=O)Nc2ccc(CN3CCN(C)CC3)c(C(F)(F)F)c2)cc1C#Cc1cnc2[nH]ncc2c1"
4.17 µM (active)

Name the recorded Potency of the item "COc1cc2c(cc1O)CCN[C@]21CS[C@@H]2c3c(OC(C)=O)c(C)c4c(c3[C@H](COC1=O)N1[C@@H]2[C@H]2c3c(cc(C)c(OC)c3O)C[C@@H]([C@@H]1O)N2C)OCO4" in your answer.
0.0096 µM (active)

Supply recorded Potency for "NS(=O)(=O)c1ccc(S(=O)(=O)Nc2cccc3c(Cl)c[nH]c23)cc1" here.
14.8 µM (active)

Using the record for "C=CCc1cccc(/C=N/NC(=O)CN2CCN(Cc3ccccc3)CC2)c1O" , state its measured Potency.
20.9 µM (active)

Determine from records and report Potency for "CO[C@H]1/C=C\C=C(\C)C(=O)NC2=CC(=O)C(NCCN(C)C)=C(C[C@@H](C)C[C@H](OC)[C@H](O)[C@@H](C)/C=C(/C)[C@@H]1OC(N)=O)C2=O"
2.95 µM (active)

Report measured Potency; entry is "CCCC1(CCC)CCC2(CCN(CCCN(CC)CC)C2)CC1"
5.9 µM (active)

Check the records and state Potency for "C=CC(=O)Nc1cccc(Oc2nc(Nc3ccc(N4CCN(C)CC4)c(F)c3)nc3[nH]ccc23)c1"
14.8 µM (active)

Output measured Potency for this item: CC[C@]12C=CCN3CC[C@@]4(c5cc([C@@]6(C(=O)OC)CC7C[C@@H](C(C)(F)F)CN(Cc8c6[nH]c6ccccc86)C7)c(OC)cc5N(C)[C@H]4[C@@](O)(C(=O)OC)[C@@H]1OC(C)=O)[C@@H]32 (stereo partly drawn)
1.66 µM (active)

Give me measured Potency, please, for this compound: "Cc1ccc(C(=O)OCc2ccc([C@@H](CN)C(=O)Nc3ccc4cnccc4c3)cc2)c(C)c1"
14.4 µM (active)

Give recorded Potency. "Cc1cc(O[C@@H](CCC(F)(F)F)c2ccc(C(=O)NCCC(=O)O)cc2)cc(C)c1-c1ccc(C(C)(C)C)cc1"
20.9 µM (active)

For "C=CC(=O)N1CC[C@@H](Oc2nc(Nc3ccc(N4CCC(N5CCN(C)CC5)CC4)cc3)c(C(N)=O)nc2CC)C1" , write its Potency.
10.2 µM (active)

State, in one line, measured Potency of "COc1ccc(S(=O)(=O)N2CCc3cccc(-c4ccncc4)c32)cc1"
1.66 µM (active)

Look up and state reported Potency for "C=CC(=O)Nc1cccc(C)c1Nc1ncc2cc(-c3c(Cl)c(OC)cc(OC)c3Cl)ccc2n1"
14.8 µM (active)

Please indicate Potency recorded for "CN1C/C=C/CCOc2cccc(c2)-c2ccnc(n2)Nc2cccc(c2)C1"
0.118 µM (active)

Entry COc1ccc(-c2cc(C(O)C3CCCCN3)c3ccccc3n2)cc1 (stereo not drawn) needs its Potency filled in; supply it.
14.8 µM (active)

Annotate the compound "COc1ccc(-c2nc(N3CCOCC3)c3sc(CN(C)c4ncc(C(=O)NO)cn4)cc3n2)cn1" with its measured Potency.
0.0295 µM (active)

Identify the reported Potency for the following entry. "CN(Cc1cnc2nc(N)nc(N)c2n1)c1ccc(C(=O)N[C@@H](CCC(=O)O)C(=O)O)cc1"
0.0372 µM (active)

Identify Potency associated with the compound "CCCC[C@@H](C=O)NC(=O)[C@H](CC(C)C)NC(=O)OCc1ccccc1"
18.6 µM (active)

Please supply the value of reported Potency for the item "C=CC(=O)Nc1ccc2ncnc(Nc3cccc(Br)c3)c2c1"
26.3 µM (active)

Respond only with Potency recorded for "CNS(=O)(=O)c1ccc2c(c1)/C(=C/c1[nH]c3c(c1CCCN1CCN(C)CC1)CCCC3)C(=O)N2"
18.6 µM (active)

Entry COc1cc(Oc2ccnc3cc(OC)c(OC)cc23)ccc1NC(=O)NC(C)c1nccs1 (stereo not drawn) needs its Potency filled in; supply it.
10.5 µM (active)

Output measured Potency for this item: "CC/C(=C(/CC)c1ccc(O)cc1)c1ccc(O)cc1"
20.9 µM (active)

// fetch Potency given entry CCC(C(=O)O)C1CCC(C)C(C(C)C(O)C(C)C(=O)C(CC)C2OC3(C=CC(O)[C@@]4(CC[C@](C)(C5CC[C@@](O)(CC)C(C)O5)O4)O3)C(C)CC2C)O1 (stereo partly drawn)
5.25 µM (active)

Write down Potency measured for item "Cc1ccc(C(=O)N(CCCN)[C@@H](c2nc3cc(Cl)ccc3c(=O)n2Cc2ccccc2)C(C)C)cc1"
0.105 µM (active)

Answer with the recorded Potency of "COc1cc(Nc2cnc(C#N)c(O[C@H](C)CN(C)C)n2)ncc1-c1cnn(C)c1" only.
3.72 µM (active)

Please report Potency for the following compound: CC(=O)O[C@H]1C(=O)[C@@]2(C)C([C@H](OC(=O)c3ccccc3)[C@]3(O)C[C@H](OC(=O)[C@H](O)[C@@H](NC(=O)c4ccccc4)c4ccccc4)C(C)=C1C3(C)C)[C@]1(OC(C)=O)CO[C@@H]1C[C@@H]2O (stereo partly drawn)
0.148 µM (active)

Give the reported Potency for this compound. "CCS(=O)(=O)Nc1ccc2[nH]c(O)c(C(=Nc3ccc(CN4CCCCC4)cc3)c3ccccc3)c2c1"
2.63 µM (active)

Tell us which Potency value is on record for CN1CCN(C2CCC(n3cc(-c4ccc(Oc5ccccc5)cc4)c4c(N)ncnc43)CC2)CC1 (stereo not drawn)
20.9 µM (active)

Name the recorded Potency of the compound listed here: "O=C(N[C@H]1CCC[C@H](CO)C1)C1CCN(c2nc3cc(Cl)c(-c4ccc(Cl)cc4)cc3o2)CC1"
20.9 µM (active)

Return the recorded Potency value; entry: "CC(=O)O/N=C1/C(c2c(O)[nH]c3cc(Br)ccc23)=Nc2ccccc21"
14.8 µM (active)

Look up and state reported Potency for "COc1cc2c3c(n(CCCNCCO)c(=O)c2cc1OC)-c1cc2c(cc1C3=O)OCO2"
0.148 µM (active)

Check the records and state Potency for CC(=O)C1CCC2C3CCC4=CC(=O)CCC4(C)C3CCC12C (stereo not drawn)
18.6 µM (active)

The measurements presented in this section are drawn from PubChem BioAssay (NCATS).
